- methodDescription: Caco-2 cell permeability assay
- Type: in vitro ADME
- reportedConditions: human, Caco-2, pH 7.4
property: efflux ratio at 60 min, 10 µM

[[record]]
samplesmiles = "Cc1nc(-c2ccc(CC(=O)Nc3noc4c3CCCC4)cc2)c(C)[nH]1"
property = "efflux ratio at 60 min, 10 µM"
endpointresult = 6.7


* * *

- methodDescription: Cell viability assay (resazurin), BJhTERT non-transformed control
- Format: cell-based
- reportedConditions: human, BJhTERT, 100 μM, two independent experiments; read-out: percentage cell viability
- Description: A2780, HCT116, and HEK293T cell lines were authenticated with STR profiling, frozen down, and these stocks were used in experiments. […] All media were supplemented with 10% FBS and 1% P/S. All cell culture media, additives, and reagents were purchased from Thermo Fisher Scientific. […] The cell viability was calculated compared to untreated control wells and the EC50 values were determined in XLfit (IDBS).
property: viability at 72 h, 100 µM (%)

[[record]]
samplesmiles = "Cc1cc(C2CC2)n(-c2ccc(CC(=O)Nc3noc4c3CCCC4)cc2)n1"
property = "viability at 72 h, 100 µM"
quantityunit = "%"
endpointresult = 73

[[record]]
samplesmiles = "Nc1nn(-c2ccc(CC(=O)Nc3noc4c3CCCC4)cc2)c2ccccc12"
property = "viability at 72 h, 100 µM"
quantityunit = "%"
endpointresult = 38.2

[[record]]
samplesmiles = "Cc1nn(-c2ccc(CC(=O)Nc3noc4c3CCCC4)cc2)c2ccc(N)cc12"
property = "viability at 72 h, 100 µM"
quantityunit = "%"
endpointresult = 38.5

[[record]]
samplesmiles = "Cc1nc(-c2ccc(CC(=O)Nc3noc4c3CCCC4)c(C)c2)c(C)[nH]1"
property = "viability at 72 h, 100 µM"
quantityunit = "%"
endpointresult = 15.2


Value source: paper PMC11836371
